Cited source: patent US11603377B2

target: FKBP12 / FRB ternary complex (Homo sapiens (Human), UniProt P42345+P62942); experiment: SPR assay to characterize ternary complex formation with FKBP12 (FRB binding to rapalog-saturated FKBP12); conditions: FRB dilutions with 100 nM rapalog on immobilized FKBP12
Sequence (P62942 whole entry): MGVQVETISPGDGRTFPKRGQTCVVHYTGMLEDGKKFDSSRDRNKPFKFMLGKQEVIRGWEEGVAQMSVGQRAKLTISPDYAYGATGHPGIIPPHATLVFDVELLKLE
Sequence (P42345 2012-2144): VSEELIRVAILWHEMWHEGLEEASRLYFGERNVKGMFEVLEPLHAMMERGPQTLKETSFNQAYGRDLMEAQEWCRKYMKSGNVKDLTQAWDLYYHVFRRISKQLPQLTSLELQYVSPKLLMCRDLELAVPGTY
Test Readout: Kd

Compound	Test Readout	Meas Value
COCCS(=O)(=O)NC1CC2CCC(C)C(O)(O2)C(=O)C(=O)N2CCCCC2C(=O)OC(C(C)CC2CCC(OCCO)C(OC)C2)CC(=O)C(C)C=C(C)C(O)C(OC)C(=O)C(C)CC(C)C=CC=CC=C1C (mixture of isomers)	Kd	300 to 800 nM
CO[C@@H]1C[C@H](C[C@@H](C)[C@@H]2CC(=O)[C@H](C)/C=C(\C)[C@@H](O)[C@@H](OC)C(=O)[C@H](C)C[C@H](C)/C=C/C=C/C=C(\C)[C@H](NS(=O)(=O)CC3CCCC3)C[C@@H]3CC[C@@H](C)[C@@](O)(O3)C(=O)C(=O)N3CCCC[C@H]3C(=O)O2)CC[C@H]1O	Kd	> 800 nM
COC1CC(CC(C)C2CC(=O)C(C)C=C(C)C(O)C(OC)C(=O)C(C)CC(C)C=CC=CC=C(C)C(OC3CC3)CC3CCC(C)C(O)(O3)C(=O)C(=O)N3CCCCC3C(=O)O2)CCC1OCCCO (stereo not shown) [Compound 53]	Kd	< 300 nM
COC1CC(CC(C)C2CC(=O)C(C)C=C(C)C(O)C(OC)C(=O)C(C)CC(C)C=CC=CC=C(C)C(OCC3CCC3)CC3CCC(C)C(O)(O3)C(=O)C(=O)N3CCCCC3C(=O)O2)CCC1OCCCO (stereo not shown)	Kd	< 300 nM
